test: Spontaneous release of nitric oxide, titrated as nitrites+nitrates (Griess reagent, nitrate reductase); settings: nitrites+nitrates released; test product 150 μM, 4 hours at 37° C., pH 7.5 PBS buffer; compounds of formula I
Parameter Nitrites-Nitrates: see the listing below.

{"molecule": "COc1ccc(N(N=O)c2ccc(C(=O)Nc3cccnc3)cc2)cc1 [Example 1b]", "Nitrites-Nitrates [µM]": 63}
{"molecule": "COc1ccc(N(N=O)c2cccc(C(=O)Nc3cccnc3)c2)cc1 [Example 4b]", "Nitrites-Nitrates [µM]": 70}
{"molecule": "COc1ccc(N(N=O)c2ccc(C(=O)NCCN3CCN(C)CC3)cc2)cc1 [Example 6b]", "Nitrites-Nitrates [µM]": 58}
